molecular target: other myeloid Src-family kinases; experiment: In vitro kinase assay; conditions: data not shown
Property Label: IC50

Provide other myeloid Src-family kinases IC50 reading for `CNC(=O)c1cc(Oc2ccc(NC(=O)Nc3ccc(Cl)c(C(F)(F)F)c3)cc2)ccn1` .
> 100 µM
